Quick reference: cytotoxicity at 10 µM of the listed items.
Experiment Notes: Toxicity liver stage against HepG2, at 10uM
Type: cell-based
Parameters: test concentration 10 uM, cell line HepG2-A16-CD81EGFP
Measurement Context: human, HepG2-A16-CD81EGFP cells; read-out: INHIBITION
Quantity Name: cytotoxicity at 10 µM (%)

[[record]]
compound = "c1ccc(C[C@H]2[C@H](N3CCOCC3)CCN2Cc2cccnc2)cc1"
value_reported = -4.34

[[record]]
compound = "Cc1nnc(CN2CCC(c3nc4cc(Cl)ccc4o3)CC2)n1C"
value_reported = -3.49

[[record]]
compound = "CC1CN(C(=O)c2ccc(C(N)=O)cc2)c2ccc(F)cc2O1 (stereo unspecified)"
value_reported = 8.07

[[record]]
compound = "Nc1cccnc1N1CCN(c2ccccc2)CC1"
value_reported = -2.95

[[record]]
compound = "Cc1ncncc1C(=O)N1CCCC(Cc2nccs2)C1 (stereo unspecified)"
value_reported = -9.13

[[record]]
compound = "Cc1ccc2c(c1)C(=O)NCC1(CCN(C(=O)c3csc(C)c3)CC1)O2"
value_reported = -27.7


====

Experiment Notes: Toxicity liver stage against HepG2, at 10uM
Format: cell-based
Set-up: test concentration 10 uM, cell line HepG2-A16-CD81EGFP
Measurement Context: human, HepG2-A16-CD81EGFP cells; read-out: INHIBITION
Quick reference: cytotoxicity at 10 µM of the listed items.
Quantity Name: cytotoxicity at 10 µM (%)

[[record]]
molecule = "CC(=O)NC(C(=O)N1CCn2cncc2C1)C(C)C (stereo unspecified)"
uom = "%"
value_reported = -14.7

[[record]]
molecule = "O=C(c1ccn(-c2ccc(F)cc2)n1)N1CCCC(n2ccnc2)C1 (stereo unspecified)"
uom = "%"
value_reported = -16.3

[[record]]
molecule = "CS(=O)(=O)N1CC(c2ccnc(Nc3ccccn3)n2)C1"
uom = "%"
value_reported = 13.8

[[record]]
molecule = "CCN1CCC(NC(=O)CN2CCCC2Cn2cc(C)cn2)CC1 (stereo unspecified)"
uom = "%"
value_reported = -8.84

[[record]]
molecule = "Cc1nccc(N[C@H]2CN(C(=O)C3(C#N)CCOCC3)C[C@@H]2C(C)C)n1"
uom = "%"
value_reported = 9.81

[[record]]
molecule = "CCN(CC)S(=O)(=O)N1CCCC(c2ncc3c(n2)CCN(C)C3)C1 (stereo unspecified)"
uom = "%"
value_reported = 3.77


====

Experiment Notes: Toxicity liver stage against HepG2, at 10uM
Format: cell-based
Design: test concentration 10 uM, cell line HepG2-A16-CD81EGFP
Measurement Context: human, HepG2-A16-CD81EGFP cells; read-out: INHIBITION
Quick reference: cytotoxicity at 10 µM of the listed items.
Quantity Name: cytotoxicity at 10 µM (%)

[[record]]
compound = "CC(C)c1nc(C2CCCN(c3ncccn3)C2)no1 (configuration not stated)"
value_reported = 12.4

[[record]]
compound = "Cc1nn(C)c(Cl)c1C1CCCN1C(=O)c1cnccn1 (configuration not stated)"
value_reported = -4.73

[[record]]
compound = "COc1cc(C(=O)NS(=O)(=O)c2cccc(C#N)c2)ccc1C"
value_reported = -9.29

[[record]]
compound = "Cc1noc(C2CCC3(CCN(C(=O)C4=CCCCC4)CC3)O2)n1 (configuration not stated)"
value_reported = -7.36

[[record]]
compound = "CC(Cn1cccn1)NC(=O)NCCCN1CCc2ccccc2C1 (configuration not stated)"
value_reported = -3.08

[[record]]
compound = "CC(C)n1nc(CN2CCCC2)c2c1CN(CC1CC1)CC2"
value_reported = 2.53

[[record]]
compound = "Cc1cnn(CC2CN(CCS(=O)(=O)c3ccccc3)CCO2)c1 (configuration not stated)"
value_reported = -3.08

